- EXPERIMENT DESCRIPTION: Half-life was measured
- Type: ADME, Cavia porcellus
- RUN CONDITIONS: guinea pig
READOUT KIND: half-life

// query Consider the molecule shown here: CC(Cc1ccc(OCCF)cc1)NCC(O)c1cc(O)cc(O)c1 (stereo unspecified) What is its recorded half-life?
// result 1.83 h
